EXPERIMENTAL_SYSTEM: Polyunsaturated fatty acid lipoxygenase ALOX15 (Homo sapiens)
TEST_SUMMARY: Counterscreen qHTS for inhibitors of human arachidonate 12S-lipoxygenase (ALOX12): ALOX15 Assay
TEST_CONDITIONS: purified ALOX15 enzyme activity; series mostly up to 110 µM
Inconclusive results are not listed. Activity calls are given as the source filed them. The call rests on the fitted dose curve; in most records, active means well fitted curve in the direction sought with a large enough effect; inconclusive means small, poorly fitted or top-dose-only effect, or another doubt; inactive means no such curve, though single readings can be large or run the other way.
MEASURED_ATTRIBUTE: outcome

Consider the following illustrative entries.
- MOLECULE: "COc1ccc(-c2cc(C(=O)NCC3CC3)c3c(C4CCNC4)noc3n2)cc1 (stereo unspecified)"
  outcome: "inactive"
- MOLECULE: "CCC(=O)N1Cc2ccccc2CC2(CCCCN2CC2CCOCC2)C1 (stereo unspecified)"
  outcome: "inactive"
- MOLECULE: "CCc1nc2c(c(-c3ccc(OC)cc3)n1)CN([S+](=O)([O-])c1cccc(OC)c1)CC2"
  outcome: "inactive"
- MOLECULE: "O=C1NCc2ccccc2CC12CCN(Cc1ccccc1OC(F)(F)F)C2 (stereo unspecified)"
  outcome: "inactive"
- MOLECULE: "NCc1ccccc1-c1cc(C(F)(F)F)ccc1Cl"
  outcome: "inactive"

Next molecule, outcome to be filled in.
Briefly, outcome measured for COc1cc(CN2CCC3(Cc4ccccc4CNC3=O)C2)cc(OC)c1 (stereo unspecified) : inactive

###

EXPERIMENTAL_SYSTEM: Polyunsaturated fatty acid lipoxygenase ALOX15 (Homo sapiens) (UniProt P16050)
Sequence (P16050 whole entry, looked up): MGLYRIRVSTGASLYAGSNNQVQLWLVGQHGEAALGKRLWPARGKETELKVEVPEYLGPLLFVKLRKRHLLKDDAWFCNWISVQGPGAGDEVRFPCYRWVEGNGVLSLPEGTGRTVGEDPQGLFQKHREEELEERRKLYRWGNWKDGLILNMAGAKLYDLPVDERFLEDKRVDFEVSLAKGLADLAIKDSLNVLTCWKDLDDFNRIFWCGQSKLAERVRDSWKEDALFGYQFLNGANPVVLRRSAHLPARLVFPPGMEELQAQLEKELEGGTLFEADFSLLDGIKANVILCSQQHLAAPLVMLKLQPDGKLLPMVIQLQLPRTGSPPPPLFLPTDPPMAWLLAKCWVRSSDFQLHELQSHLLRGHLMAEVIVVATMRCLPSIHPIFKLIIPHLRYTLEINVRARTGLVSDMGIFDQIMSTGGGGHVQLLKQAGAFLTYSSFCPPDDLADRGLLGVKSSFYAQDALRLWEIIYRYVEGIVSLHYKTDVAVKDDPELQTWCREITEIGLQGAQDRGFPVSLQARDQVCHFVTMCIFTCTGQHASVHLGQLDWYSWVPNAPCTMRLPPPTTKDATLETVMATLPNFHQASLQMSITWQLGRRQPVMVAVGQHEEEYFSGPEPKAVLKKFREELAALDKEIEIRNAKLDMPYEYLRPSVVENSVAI
TEST_SUMMARY: Counterscreen qHTS for inhibitors of human arachidonate 12S-lipoxygenase (ALOX12): ALOX15 Assay
TEST_CONDITIONS: purified ALOX15 enzyme activity; series mostly up to 110 µM
Records with an inconclusive call do not appear. The source made the active and inactive calls. The call rests on the fitted dose curve; in most records, active means well fitted curve in the direction sought with a large enough effect; inconclusive means small, poorly fitted or top-dose-only effect, or another doubt; inactive means no such curve, though single readings can be large or run the other way.
MEASURED_ATTRIBUTE: outcome

Consider the following illustrative entries.
- COMPOUND: "CNC(C)c1c(F)cccc1F (configuration not stated)"
  MEASURED_ATTRIBUTE: "outcome"
  REPORTED_MEASUREMENT: "inactive"
- COMPOUND: "CCOCCNc1ncnc2c1CN(C1CCCNCC1)C(=O)CN2C (configuration not stated)"
  MEASURED_ATTRIBUTE: "outcome"
  REPORTED_MEASUREMENT: "inactive"
- COMPOUND: "CNCc1ccc(N2CCCC2)cc1"
  MEASURED_ATTRIBUTE: "outcome"
  REPORTED_MEASUREMENT: "inactive"
- COMPOUND: "O=C(c1ccc2c(c1)OCO2)N1CCCC1c1nnc2n1CCNC2 (configuration not stated)"
  MEASURED_ATTRIBUTE: "outcome"
  REPORTED_MEASUREMENT: "inactive"
- COMPOUND: "CN(C)CCC(=O)N1Cc2ccccc2CC2(CCCN(C)C2)C1 (configuration not stated)"
  MEASURED_ATTRIBUTE: "outcome"
  REPORTED_MEASUREMENT: "inactive"
- COMPOUND: "COc1ccc(OC2CN(Cc3cccc4ccccc34)C2)cc1"
  MEASURED_ATTRIBUTE: "outcome"
  REPORTED_MEASUREMENT: "inactive"
- COMPOUND: "O=C(c1ccc(Cl)cc1)N1CC2(CCN(Cc3ccc(Cl)cc3)C2)Cc2ccccc21 (configuration not stated)"
  MEASURED_ATTRIBUTE: "outcome"
  REPORTED_MEASUREMENT: "inactive"
- COMPOUND: "O=C(N1CCCCC1)N1CCCC1c1nnc2n1CCNC2 (configuration not stated)"
  MEASURED_ATTRIBUTE: "outcome"
  REPORTED_MEASUREMENT: "inactive"

Briefly, outcome measured for O=C1NCc2ccccc2CC12CCN(Cc1ccnc3ccccc13)CC2 : inactive

Briefly, outcome measured for Cc1cc(C(=O)NCc2ccc(F)cc2)c2c(C3CCCNC3)noc2n1 (configuration not stated) : inactive

Briefly, outcome measured for O=c1[nH]c(C2CCN(Cc3ccc(-c4cccnc4)cc3)CC2)nc2ccc(F)cc12 : inactive

Briefly, outcome measured for CCOc1ccccc1CN1CCCCC12Cc1ccccc1CNC2=O (configuration not stated) : inactive
